# Test summary: Luminescence Cell-Based Dose Confirmation HTS to Identify Activators of 5'UTR Stem-Loop Driven Alpha-Synuclein mRNA Translation in H4 Neuroglioblastoma Cells. [Related pubchem assays: 1829 (Project Summary), 1814 (Primary HTS)]
# Assay type: functional
Activity calls are given as the source filed them. No stated cut-off is given here; in the data, actives have a measured EC50 and inactives only a lower limit.
Reported EC50 values are given for each entry in this list.
Property name: EC50

• CN1CCN(c2ccc(NC(=O)COc3ccccc3)cc2Cl)CC1 = 0.214 µM (active)
• Cc1ccc(NC2c3ncccc3C(=O)N2c2ccccc2C)cc1C (centres undefined) = 12 µM (active)
• CC(Cc1ccccc1)/[N+]([O-])=C\c1ccc(C(F)(F)F)cc1 (centres undefined) = 1.2 µM (active)
• CN1CCN(CCCNC(=O)c2cc3c(=O)n(C)c4ccccc4c3s2)CC1 = > 120 µM (not active)
